- Tested on: ATPase activity endogenous to L929 cell lysate
- Experiment summary: Detergent inhibition of ATPase endogenous to L929 cell lysate (ATP remaining by luciferase luminescence, 22° C.)
- Type: biochemical
- Setup conditions: 0.05% detergent, 260 min
- Text: […]
Listed molecules paired with reported Percent ATP Remaining
Readout type: Percent ATP Remaining

| Molecule | Result |
| --- | --- |
| CCCCCCCCCCCC[N+](C)(C)CCCS(=O)(=O)[O-] | 3.7% |
| C[C@H](CCC(=O)NCCC[N+](C)(C)CCCS(=O)(=O)[O-])[C@H]1CC[C@H]2[C@@H]3[C@H](O)C[C@@H]4C[C@H](O)CC[C@]4(C)[C@H]3C[C@H](O)[C@]12C | 3.8% |
| CCCCCCCCCCCCOS(=O)(=O)[O-].[Na+] [SDS, Sodium dodecyl sulfate] | 68.0% |
| C[C@H](CCC(=O)NCCC[N+](C)(C)CC(O)CS(=O)(=O)[O-])[C@H]1CC[C@H]2[C@@H]3[C@H](O)C[C@@H]4C[C@H](O)CC[C@]4(C)[C@H]3C[C@H](O)[C@]12C (stereo partly drawn) | 3.7% |
| CCCCCCCCCCCCCCCC[N+](C)(C)C.[Br-] [CTAB, Cetyltrimethylammonium bromide] | 15.4% |
| CCCCCCCCCCCC[N+](C)(C)Cc1ccccc1.[Br-] [BDDABr, Benzyldimethyldodecylammonium bromide] | 17.4% |
| CCCCCCCCCCCC[N+](C)(C)C.[Br-] [DTAB, dodecyltrimethylammonium bromide] | 9.8% |
| C[C@H](CCC(=O)[O-])[C@H]1CC[C@H]2[C@@H]3CC[C@@H]4C[C@H](O)CC[C@]4(C)[C@H]3C[C@H](O)[C@]12C.[Na+] [Deoxycholate, sodium deoxycholate] | 3.2% |
| C[C@H](CCC(=O)N(CCCNC(=O)[C@H](O)[C@@H](O)[C@H](O)[C@H](O)CO)CCCNC(=O)[C@H](O)[C@@H](O)[C@H](O)[C@H](O)CO)[C@H]1CC[C@H]2[C@@H]3[C@H](O)C[C@@H]4C[C@H](O)CC[C@]4(C)[C@H]3C[C@H](O)[C@]12C [BIGCHAP, N,N-bis(3-D-Gluconamidopropyl)cholamide] | 3.7% |
